experimentalTarget: Human M4 (Homo sapiens, UniProt P08173)
Construct: expressed in transfected cells; host or cells: CHO-K1 (ATCC), stably expressing M4 and Gqi5
assayDetails: mAChR M4 cell-based functional calcium flux assay (human M4/Gqi5/CHO cells)
measurementSetup: % ACh maximum at 30 μM
measurementName: Emin (human M4) (%)

molecule	resultNumber
Cc1nn(C)cc1-c1cnc(NCC2CC23CCN(CC(C)C(C)(C)C)CC3)cn1 (centres unmarked) [Compound 22]	3.25
CC(C)(C)CCN1CCC2(CC1)CC2CNc1ccc(N2CCOCC2)nn1 (centres unmarked) [Compound 79]	5

(I) CC(=O)Nc1ccc(-c2ccc(NCC3CC34CCN(CCC(C)(C)C)CC4)nn2)cc1 (centres unmarked) [Compound 40]
(II) C1=CC2CC1CC2CN1CCC2(CC1)CC2CNc1ncc(-c2ccccc2)s1 (centres unmarked) [Compound 71]
In the pair I and II , the larger recorded Emin (human M4) belongs to which? Kindly state the label of the option you pick.
II
(II: 4.74%, I: 2.97%)

(1) c1cc(N2CCOCC2)nnc1NCC1CC12CCN(CC1CCOCC1)CC2 (centres unmarked) [Compound 85]
(2) CC(C)(C)CCN1CCC2(CC1)CC2CNc1ccc(-c2ccc3ncccc3c2)nn1 (centres unmarked) [Compound 45]
(3) Cc1cccnc1CN1CCC2(CC1)CC2CNc1ccc(-c2cn(C)nc2C)nn1 (centres unmarked) [Compound 62]
With regard to Emin (human M4), arrange the entries in ascending order, please. Show the ranking through the labels, in the order asked for.
2, 3, 1

(a) Fc1ccc(CN2CCC3(CC2)CC3CNc2ccc(-c3cc(F)ccc3Cl)nn2)cc1 (centres unmarked) [Compound 99]
(b) Cc1nn(C)cc1-c1ccc(NCC2CC23CCN(CC2CC2)CC3)nn1 (centres unmarked) [Compound 55]
Which entry shows the lesser value of Emin (human M4) here, a or b ? Kindly state the label of the option you pick.
a
(a: 3%, b: 16.7%)

* * *

experimentalTarget: Human M4 (Homo sapiens)
Construct: expressed in transfected cells; host or cells: CHO-K1 (ATCC), stably expressing M4 and Gqi5
assayDetails: mAChR M4 cell-based functional calcium flux assay (human M4/Gqi5/CHO cells)
measurementSetup: % ACh maximum at 30 μM
measurementName: Emin (human M4) (%)

Here are 5 molecules together with their reported answers.
molecule	Emin (human M4), %
Cc1ccncc1-c1ccc(NCC2CC23CCN(CCC(C)(C)C)CC3)nn1 (centres unmarked)	2.93
CC(C)(C)CCN1CCC2(CC1)CC2CNc1ccc(-c2ccc(F)cc2F)nn1 (centres unmarked)	2.74
Cc1nn(C)cc1-c1cnc(NCC2CC23CCN(CC2CC4C=CC2C4)CC3)cn1 (centres unmarked)	3.65
Fc1ccc(Cl)c(-c2ccc(NC[C@@H]3CC34CCN(CC3CC5CCC3O5)CC4)nn2)c1 (some centres unmarked)	3
Cc1nn(C)cc1-c1nnc(NCC2CC23CCN(Cc2ccccc2)CC3)c2ccccc12 (centres unmarked)	5

(A) CCCC(C)CN1CCC2(CC1)CC2CNc1ccc(-c2cn(C)nc2C)nn1 (centres unmarked)
(B) CC(CN1CCC2(CC1)CC2C(=O)Nc1ccc(-c2cc(F)ccc2Cl)nn1)C(C)(C)C (centres unmarked)
Which entry shows the lesser value of Emin (human M4) here, A or B ? Kindly state the label of the option you pick.
A

* * *

experimentalTarget: Rat M4 (Rattus norvegicus, UniProt P08485)
Construct: expressed in transfected cells; host or cells: CHO-K1 (ATCC), stably expressing M4 and Gqi5
Sequence (P08485 1-478): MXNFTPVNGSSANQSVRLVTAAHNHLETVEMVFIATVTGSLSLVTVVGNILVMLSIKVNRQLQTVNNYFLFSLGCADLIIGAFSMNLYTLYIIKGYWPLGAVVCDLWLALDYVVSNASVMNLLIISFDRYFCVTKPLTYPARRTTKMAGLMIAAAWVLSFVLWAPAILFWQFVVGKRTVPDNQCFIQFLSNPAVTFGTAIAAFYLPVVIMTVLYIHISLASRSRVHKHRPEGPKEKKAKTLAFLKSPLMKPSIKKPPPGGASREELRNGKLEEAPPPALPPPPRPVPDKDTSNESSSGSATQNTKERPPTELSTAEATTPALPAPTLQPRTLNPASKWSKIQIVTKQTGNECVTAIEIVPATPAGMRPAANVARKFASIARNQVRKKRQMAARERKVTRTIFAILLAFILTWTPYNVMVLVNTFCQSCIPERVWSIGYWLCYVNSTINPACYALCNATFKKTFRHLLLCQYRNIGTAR
assayDetails: mAChR M4 cell-based functional calcium flux assay (rat M4/Gqi5/CHO cells)
measurementSetup: decrease of the response to an EC80 concentration of acetylcholine
pIC50: −log10 of the molar value.
measurementName: pIC50

compound	pIC50
Cc1cnn(C)c1-c1ccc(NC(=O)C2CC23CCN(CCC(C)(C)C)CC3)nn1 (centres unmarked)	5.24
Cc1cnn(C)c1-c1ccc(NC(=O)C2CC23CCN(CC2CC4C=CC2C4)CC3)nn1 (centres unmarked)	5.44
CC(C)(C)CCN1CCC2(CC1)CC2CNc1ccc(N2CCC(F)(F)CC2)nn1 (centres unmarked)	7.03
Cc1nn(C)c(C)c1-c1ccc(NCC2CC23CCN(CCC(C)(C)C)CC3)nn1 (centres unmarked)	7.48
Cc1nn(C)cc1-c1ccc(NCC2CC23CCN(CC2CCCCC2)CC3)nn1 (centres unmarked)	7.20
CC(C)(C)CCN1CCC2(CC1)C[C@@H]2CNc1ccc(-c2cc(F)ccc2Cl)nn1	6.82

(I) CC(=O)Nc1ccc(-c2ccc(NC[C@@H]3CC34CCN(CC3CCOCC3)CC4)nn2)cc1
(II) CC(C)(C)CCN1CCC2(CC1)CC2CNc1ccc(N2CCOCC2)nn1 (centres unmarked)
Which entry shows the lesser value of pIC50 here, I or II ? Kindly state the label of the option you pick.
I

* * *

experimentalTarget: Human M4 (Homo sapiens)
Construct: expressed in transfected cells; host or cells: CHO-K1 (ATCC), stably expressing M4 and Gqi5
Sequence (P08173 1-479): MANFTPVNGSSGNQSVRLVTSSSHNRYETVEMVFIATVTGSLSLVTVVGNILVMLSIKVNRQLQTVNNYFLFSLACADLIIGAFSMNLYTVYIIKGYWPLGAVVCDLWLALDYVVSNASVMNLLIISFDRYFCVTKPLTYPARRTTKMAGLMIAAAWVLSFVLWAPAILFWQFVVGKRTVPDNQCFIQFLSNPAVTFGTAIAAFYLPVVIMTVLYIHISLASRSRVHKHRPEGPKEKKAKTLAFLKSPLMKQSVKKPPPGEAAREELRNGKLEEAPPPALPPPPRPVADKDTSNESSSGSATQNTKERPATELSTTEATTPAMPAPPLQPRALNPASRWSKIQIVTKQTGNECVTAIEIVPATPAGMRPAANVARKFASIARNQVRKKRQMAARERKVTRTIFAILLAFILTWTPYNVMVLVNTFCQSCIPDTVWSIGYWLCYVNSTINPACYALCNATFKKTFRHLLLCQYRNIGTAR
assayDetails: mAChR M4 cell-based functional calcium flux assay (human M4/Gqi5/CHO cells)
measurementSetup: % ACh maximum at 30 μM
measurementName: Emin (human M4) (%)

Here are 7 molecules together with their reported answers.
molecule	Emin (human M4), %
COc1ccc(F)cc1-c1ccc(NCC2CC23CCN(CCC(C)(C)C)CC3)nn1 (stereo not shown)	3.03
Cn1nccc1-c1ccc(NCC2CC23CCN(CCC(C)(C)C)CC3)nn1 (stereo not shown)	3.30
Fc1ccc(Cl)c(-c2ccc(NCC3CC34CCN(CC3CC5C=CC3C5)CC4)nc2)c1 (stereo not shown)	4.04
C1=CC2CC1CC2CN1CCC2(CC1)CC2CNc1ccc(N2CCOCC2)nn1 (stereo not shown)	3
Cc1nn(C)cc1-c1nnc(NCC2CC23CCN(CC24CC5CC(CC(C5)C2)C4)CC3)c2ccccc12 (stereo not shown)	3
CC(=O)Nc1ccc(-c2ccc(NC[C@H]3CC34CCN(CC3CCCCC3)CC4)nn2)cc1	4
CC(C)(C)CCN1CCC2(CC1)CC2CNc1ccc(-c2ccc(F)c(F)c2)nn1 (stereo not shown)	2.71

(P) Cc1nn(C)cc1-c1nnc(NCC2CC23CCN(CC2CC4C=CC2C4)CC3)c2ccccc12 (stereo not shown)
(Q) Cc1nn(C)cc1-c1ccc(NCC2CC23CCN(CC(c2ccccc2)c2ccccc2)CC3)nn1 (stereo not shown)
(R) CC(=O)Nc1ccc(-c2ccc(NC[C@@H]3CC34CCN(Cc3ncccc3C)CC4)nn2)cc1
With regard to Emin (human M4), arrange the entries in ascending order, please. Show the ranking through the labels, in the order asked for.
Q, P, R

* * *

experimentalTarget: Mouse M4 (Mus musculus)
Construct: expressed in transfected cells; host or cells: CHO-K1 (ATCC), stably expressing M4 and Gqi5
Sequence (P32211 whole entry): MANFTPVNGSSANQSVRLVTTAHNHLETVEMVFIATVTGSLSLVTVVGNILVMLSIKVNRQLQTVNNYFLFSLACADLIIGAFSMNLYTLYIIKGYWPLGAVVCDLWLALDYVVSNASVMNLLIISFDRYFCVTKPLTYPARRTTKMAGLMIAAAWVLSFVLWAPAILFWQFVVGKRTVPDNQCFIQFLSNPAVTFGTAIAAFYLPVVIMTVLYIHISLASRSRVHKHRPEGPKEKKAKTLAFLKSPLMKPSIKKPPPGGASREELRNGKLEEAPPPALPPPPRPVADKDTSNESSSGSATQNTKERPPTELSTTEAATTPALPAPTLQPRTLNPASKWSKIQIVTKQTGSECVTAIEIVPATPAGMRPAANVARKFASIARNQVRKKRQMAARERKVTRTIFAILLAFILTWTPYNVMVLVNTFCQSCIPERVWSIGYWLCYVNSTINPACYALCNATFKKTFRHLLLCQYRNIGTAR
assayDetails: mAChR M4 cell-based functional calcium flux assay (mouse M4/Gqi5/CHO cells)
measurementSetup: % ACh maximum at 30 μM
measurementName: Emin (mouse M4) (%)

Here are 5 compounds together with their reported answers.
compound	valueUnits	Emin (mouse M4)
CC(C)(C)CCN1CCC2(CC1)CC2CNc1ccc2nccn2n1 (stereo not shown)	%	8
C1=CC2CC1CC2CN1CCC2(CC1)CC2CNc1ccc2nncn2n1 (stereo not shown)	%	13
CC(C)(C)CCN1CCC2(CC1)CC2CNc1ccc(N2CCCCC2)nn1 (stereo not shown)	%	8
Fc1ccc(Cl)c(-c2ccc(OCC3CC34CCN(CC3CC5C=CC3C5)CC4)nn2)c1 (stereo not shown)	%	3
CC(C)(C)CCN1CCC2(CC1)CC2CNc1ccc2nncn2n1 (stereo not shown)	%	17

(P) c1cc2nncn2nc1NCC1CC12CCN(CC1CCCCC1)CC2 (stereo not shown)
(Q) Fc1ccc(Cl)c(-c2ccc(NC[C@@H]3CC34CCN(CC3CCCOC3)CC4)nn2)c1 (stereo partly shown)
In the pair P and Q , the larger recorded Emin (mouse M4) belongs to which? Kindly state the label of the option you pick.
P

Data provenance is patent US12600726B2.
